The reported numbers originate from the supplement of paper PMC9732359.

# procedure.summary: protein stability index of a GFP-peptide fusion (yeast GPS) (PSI 1-4); higher = more stable; sorted into four equal gates, so the index is relative within each strain
# recorded.conditions: san1∆
Give MET when the value for protein stability index is at least 2. Give NOT MET when it is less.

**Q:** # check: protein stability index of KYRQTKLSKEERAARVA [RPL5] is greater than or equal to 2
**A:** MET

**Q:** # check: protein stability index of TPRGNHWMGSSVSGSPR [YMR129W/POM152] is greater than or equal to 2
**A:** MET

**Q:** # check: protein stability index of KGEEAKLDSKKTVPFQV [SSN3] is greater than or equal to 2
**A:** MET

**Q:** # check: protein stability index of SSQLNKLTDEQSSLDVA [SIR3] is greater than or equal to 2
**A:** MET

**Q:** # check: protein stability index of ASILLALTQMDQDKVNF [RPB3] is greater than or equal to 2
**A:** MET

**Q:** # check: protein stability index of RETDPLVYNMTSFEQGE [RPT4] is greater than or equal to 2
**A:** MET

**Q:** # check: protein stability index of GGFTNLTSQAPQTTQMF [YDL088C/ASM4] is greater than or equal to 2
**A:** MET

###

# procedure.summary: protein stability index of a GFP-peptide fusion (yeast GPS) (PSI 1-4); higher = more stable; sorted into four equal gates, so the index is relative within each strain
# recorded.conditions: pdr5∆
Give 1 when the value for protein stability index is at least 3. Give -1 when it is less.

Previously resolved entries follow.
MVNSHGIRYIRLKQVFN [NNF1]: -1
TNQLVLLQKMLNLLNYQ [YML103C/NUP188]: -1
HHWLLDKLSGCYAPRPS [RPS4A]: -1
GFGRKGKAKGDIPGVRF [RPS23A]: 1

**Q:** # check: protein stability index of SNNTGNTAFGNSNPTSN [YJL041W/NSP1] is greater than or equal to 3
**A:** 1

**Q:** # check: protein stability index of ALYVLRERIRKGLQIYQ [PRP8] is greater than or equal to 3
**A:** -1

**Q:** # check: protein stability index of TTTRIQSQQAQPSDVMF [MED2] is greater than or equal to 3
**A:** -1

**Q:** # check: protein stability index of TVDLALFGSPPFILEYD [YMR129W/POM152] is greater than or equal to 3
**A:** -1

**Q:** # check: protein stability index of DIPPPAIMKPYYLWTGK [RPO31] is greater than or equal to 3
**A:** -1

###

# procedure.summary: protein stability index of a GFP-peptide fusion (yeast GPS) (PSI 1-4); higher = more stable; sorted into four equal gates, so the index is relative within each strain
# recorded.conditions: ubr1∆
experimental.endpoint: protein stability index
Enter the number alone.

MSEEGPQVKIREASKDN [RPB3]: 3.08
LMMVEKVPDSTYDMVGG [RPT6]: 3.01
QRSNISTAIKSLVALGI [CDC53]: 2.48
KTSCVVEKRIGKIVSQR [RGR1]: 2.85

**Q:** Given the sequence ESDSKATLQSNEPTQKD [DSN1] , what is its reported protein stability index?
**A:** 3.02

**Q:** Given the sequence FVCLSCSHIFTSDQKNK [RPB9] , what is its reported protein stability index?
**A:** 2.55

**Q:** Given the sequence MEDKISEFLNVPFESLQ [YIL149C/MLP2] , what is its reported protein stability index?
**A:** 3.06

**Q:** Given the sequence SAKPSQIPTVSSPLGFE [SIR4] , what is its reported protein stability index?
**A:** 3.03

**Q:** Given the sequence INQYQLLYNLKNDILTN [SWI1] , what is its reported protein stability index?
**A:** 1.18
